Kd values, listed per item
Biological target: T1, Rb^P H686Y (human, UniProt P06400 380-788, H686Y)
T1 construct: also called variant 58
T1 sequence (looked up): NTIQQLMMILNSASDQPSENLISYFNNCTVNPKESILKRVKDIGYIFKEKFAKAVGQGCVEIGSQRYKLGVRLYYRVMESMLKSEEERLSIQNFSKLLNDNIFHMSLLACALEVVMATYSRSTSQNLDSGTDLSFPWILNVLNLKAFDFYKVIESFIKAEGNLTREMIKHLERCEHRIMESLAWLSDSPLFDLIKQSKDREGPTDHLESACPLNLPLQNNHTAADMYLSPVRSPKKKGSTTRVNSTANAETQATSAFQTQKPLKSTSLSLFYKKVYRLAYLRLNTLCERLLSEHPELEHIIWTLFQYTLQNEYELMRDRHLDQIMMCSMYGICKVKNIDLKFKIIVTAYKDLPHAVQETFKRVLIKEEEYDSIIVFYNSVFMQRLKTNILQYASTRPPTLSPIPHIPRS
Experiment: fluorescence polarisation; 25 °C; unlabeled Rb^P titrated against 1.5 nM TMR-E2F1^TD or 7.5 nM TMR-E7^LxCxE; 25 mM Tris pH 8.0, 200 mM NaCl, 1 mM DTT, 0.1% Tween-20; 2 min incubation; quadratic fit; apparent Kd for the variants, Kd for WT
Details: both partners purified
No end group written: not given here. TMR = tetramethyl rhodamine dye
Please state the figure in nM; there is no need to write the unit.

[[record]]
binder = "{TMR}-GEGIRDLFDCDFGDLTPLD (also called E2F^TD; source: synthetic peptide, bought: GenScript) [TMR-E2F1^TD, peptide of the E2F1 transactivation domain]"
reported_result = 20


Prompt line: Any idea what its Kd is? The binder is DLYCYEQLN (also: TMR label, position not given here, source: synthetic peptide, bought: GenScript) [TMR-E7^LxCxE, LxCxE peptide of the E7 oncoprotein from HPV]
Response line: 5
